Tested on: UACC-62 melanoma
Assay: NCI-60 one-dose screen, 48 h
Conditions: 10 µM unless noted
Experimental: Growth inhibition of the UACC-62 human tumor cell line is measured as a screen for anti-cancer activity. Cells are grown in 96 well plates and exposed to the test compound for 48 hours. Compounds are tested at a single concentration, which is 10^-5 M for most compounds. The reported endpoint is percent growth (GI% or GIPRCNT), where numbers from 0 - 100% represent growth inhibition, and numbers from -100% - 0 represent cell death. For example, a value of 40 represents 60% growth inhibition. […]
Compounds without any hit were thinned out: in the full panel of roughly 83,000, 20% have a hit. Active and inactive are the calls of the source. How the source made its calls: active means growth percent below 10; inactive means the rest.
Outcome codes: active, inactive

[[record]]
compound = "S=c1nc(CS)[nH]c2ccccc12"
study_system = "UACC-62 melanoma"
label_value = "inactive"

[[record]]
compound = "COc1ccc(NC(=O)Nc2ccccc2CNc2nc(Nc3ccc(OCCN4CCCC4)cc3)ncc2Cl)cc1"
study_system = "UACC-62 melanoma"
label_value = "active"

[[record]]
compound = "O=C1OCC2=C1C(c1cccc([N+](=O)[O-])c1)c1cc3c(cc1N2CCO)CCC3 (stereo not given)"
study_system = "UACC-62 melanoma"
label_value = "inactive"

[[record]]
compound = "CCOC(=O)C1=C(C)N=C2SC=C(c3ccc(F)cc3)N2[C@H]1c1cn(-c2ccccc2)nc1-c1ccc(Cl)cc1"
study_system = "UACC-62 melanoma"
label_value = "inactive"

[[record]]
compound = "Cc1oc2c(Cc3ccc(NC(=O)c4ccc(Cl)cc4)cc3)ncnc2c1C(=O)NO"
study_system = "UACC-62 melanoma"
label_value = "inactive"

[[record]]
compound = "COc1ccc2c(c1)oc1c(C)c3c(c(C)c12)C(=O)N(Nc1ccccc1)C3=O"
study_system = "UACC-62 melanoma"
label_value = "inactive"

[[record]]
compound = "COC(=O)c1nc(-c2ccc(C)cc2)oc1Sc1ccc(C)cc1"
study_system = "UACC-62 melanoma"
label_value = "inactive"

[[record]]
compound = "Nc1[nH]nc(Nc2ccccc2)c1-c1nc2ccccc2s1"
study_system = "UACC-62 melanoma"
label_value = "inactive"

[[record]]
compound = "N#Cc1c(N)nnn1Cc1cc(=O)oc2ccc(O)cc12"
study_system = "UACC-62 melanoma"
label_value = "inactive"

[[record]]
compound = "CCOC(=O)c1cnn(-c2ccc(S(N)(=O)=O)cc2)c1N"
study_system = "UACC-62 melanoma"
label_value = "inactive"

[[record]]
compound = "CCCCCCCCCCCCC[C@H](O)C[C@H](O)[C@H](C)N"
study_system = "UACC-62 melanoma"
label_value = "inactive"

[[record]]
compound = "COC(=O)c1[nH]nc(OC)c1C1(C(C#N)c2nc3ccccc3s2)CCCc2ccccc21 (stereo not given)"
study_system = "UACC-62 melanoma"
label_value = "inactive"

[[record]]
compound = "N#C/C(=C\\c1ccc(Br)cc1)n1nnc2c(F)cccc21"
study_system = "UACC-62 melanoma"
label_value = "active"

[[record]]
compound = "CN1CCCc2cc(/C=C3\\SC(=S)N(C(Cc4ccc(O)cc4)C(=O)O)C3=O)ccc21 (stereo not given)"
study_system = "UACC-62 melanoma"
label_value = "inactive"

[[record]]
compound = "COCCn1cc(-c2csc(-c3cn(C)c4ccc(F)cc34)n2)c2cccnc21"
study_system = "UACC-62 melanoma"
label_value = "inactive"

[[record]]
compound = "N#C/C(=N\\Nc1ccc(Cl)cc1)C(=O)Nc1cc(-c2ccccc2)nn1-c1ccccc1"
study_system = "UACC-62 melanoma"
label_value = "active"

[[record]]
compound = "COc1ccc(-c2cc(-c3cccnc3)nc3sc4c(Cl)nnnc4c23)cc1OC"
study_system = "UACC-62 melanoma"
label_value = "inactive"

[[record]]
compound = "C#CCn1cnc2cnc(Nc3cccc(NC(=O)CCl)c3)nc21"
study_system = "UACC-62 melanoma"
label_value = "active"

[[record]]
compound = "COc1ccc(-c2nn3c(-c4cc(F)c(Cl)cc4Cl)nnc3s2)cc1"
study_system = "UACC-62 melanoma"
label_value = "inactive"

[[record]]
compound = "C=C(CNCCc1ccc(O)cc1)[C@@H]1CC[C@]2(CO)CC[C@]3(C)[C@H](CC[C@@H]4[C@@]5(C)CCC(NCCc6ccc(O)cc6)C(C)(C)[C@@H]5CC[C@]43C)[C@@H]12 (stereo not given in full)"
study_system = "UACC-62 melanoma"
label_value = "active"

